Where these numbers come from: PubChem BioAssay (NCI)

Listed below: growth values for each entry.
Tested on: UACC-62 melanoma
Assay: NCI-60 one-dose screen, 48 h (100 = growth as untreated, 0 = no growth, -100 = all killed)
Details: 10 µM unless noted
Compounds without any hit were thinned out: in the full panel of roughly 83,000, 20% have a hit.

COMPOUND	growth (%)
COc1ccc2c(/C=C3/C(=O)NC(=S)NC3C)cc(=O)oc2c1 (stereo unspecified)	96.8
CCN(CCNc1cc(OC)cc2cccnc12)CCc1ccccc1	99.8
COc1ccc(C(=O)c2cc3c(N)c(C(=O)Nc4cccc(Br)c4C)sc3nc2C)cc1	38
Cc1[nH]n(C(=O)c2ccncc2)c(=O)c1N=Nc1ccc(F)c(Cl)c1	106
COc1cc2oc(-c3cccc(C(=O)Nc4ccc(Cl)cc4)c3)cc(=O)c2c(OC)c1OC	-9.87
CC(=O)NCCCS(=O)(=O)O	101

----------
Test system: OVCAR-5 ovarian
Assay: NCI-60 one-dose screen, 48 h (100 = growth as untreated, 0 = no growth, -100 = all killed)
Conditions: 10 µM unless noted
Compounds without any hit were thinned out: in the full panel of roughly 83,000, 20% have a hit.
MEASURE_NAME: growth (%)

MOLECULE	UNITS	MEASUREMENT
COc1cc(/C=C/C(=O)c2ccc(Nc3ncnc4ccccc34)cc2)cc(OC)c1	%	101
O=S(=O)(NCCNc1nccc(-c2c(-c3ccc(F)c(O)c3)nc3occn23)n1)c1ccccc1	%	101
COc1ccc(/C=C\c2nc3ccccc3s2)cc1OP(=O)(O)O	%	75.4
COc1cc(C(=O)/C=C/c2c(C)n([O-])c3ccc(Cl)cc3[n+]2=O)cc(OC)c1OC	%	86.6
NS(=O)(=O)c1cccc(NC(=O)C(=O)C2C(=O)Nc3ccccc32)c1 (stereo not given)	%	96

----------
Tested on: UACC-62 melanoma
Experiment: NCI-60 one-dose screen, 48 h (100 = growth as untreated, 0 = no growth, -100 = all killed)
Settings: 10 µM unless noted
This is part of a sample that, as a whole, favours compounds with a hit. Of some 83,000 tested, about 20% had one in any assay.
Lab note - cut at 90% for growth: y if strictly below, n if not.

COMPOUND	ANSWER_LABEL
CC(=O)[C@@H]1CC[C@]2(C(=O)n3ccnc3)CC[C@]3(C)[C@H](CC[C@@H]4[C@@]5(C)Cc6c([nH]c7ccccc67)C(C)(C)[C@@H]5CC[C@]43C)[C@@H]12	n
CCn1ccnc1C(=O)/C=C/c1ccc(CC(=O)Nc2ccc(F)cc2)cc1	y
O=C(Nc1ccc2ncnc(Nc3ccc(Oc4cccc(F)c4)c(Cl)c3)c2c1)c1ccc(CNCCO)cc1	n
O=C(N/N=C/c1ccc(F)cc1)c1ccccc1Nc1cccc(C(F)(F)F)c1	n
CN1C(=O)N(C)[C@H]2NC(NN)=N[C@H]21	n
Cc1n[nH]c(C)c1-c1c(C)n[nH]c1C	y
Cc1ccc(C2C3CC4CCCCC4N3[C@@]3(C(=O)Nc4cc(Cl)ccc43)C2C(=O)c2nc3ccccc3[nH]2)cc1 (stereo not given in full)	y
CSc1nnc2c(=O)n(C)c(=O)n(C)c2n1	n
O=C1Nc2cc(-c3ccncc3)ccc2/C1=C/c1ccc[nH]1	n

----------
Test system: EKVX NSCLC
Test: NCI-60 one-dose screen, 48 h (100 = growth as untreated, 0 = no growth, -100 = all killed)
Conditions: 10 µM unless noted
Compounds without any hit were thinned out: in the full panel of roughly 83,000, 20% have a hit.
Listed below: growth values for each entry.
MEASURE_NAME: growth (%)

COMPOUND	MEASUREMENT
COc1cc(C2NC(c3cc(OC)c(OC)c(OC)c3)C(C#N)(C#N)C2(C#N)C#N)cc(OC)c1OC (stereo not given)	97.6
O=C1Nc2c(ccc(Cl)c2Cl)/C1=C/c1ccc(O)cc1	62.1
CN1CCN(Cc2ccc(NC(=O)c3cncc(C#Cc4cnccc4C(F)(F)F)c3)cc2C(F)(F)F)CC1	87.6
O=S(=O)(c1cccc(NC2=Nc3cccc4cccc2c34)c1)N1CCCC1	62
CC1=CC[C@@H]2CC[C@]3(C)[C@H](CC[C@@H]4[C@@]5(C)CCCNC(C)(C)[C@@H]5CC[C@]43C)[C@H]2[C@@H]1C	84.5
O=C1Nc2ccccc2/C1=N/c1nc(-c2ccc(Cl)cc2)cs1	60.2
COc1cc(NCC(O)CN(CC(C)C)CC(C)C)c2nc(C)ccc2c1 (stereo not given)	79.8
Fc1ccccc1CSc1ncnc2nc[nH]c12	113
CN1C(=O)N(C)[C@H]2NC(NN)=N[C@H]21	99.1
COc1ccccc1/C=C1\COc2ccc(-c3ccccc3)cc2C1=O	94

----------
System: DU-145 prostate
Assay: NCI-60 one-dose screen, 48 h (100 = growth as untreated, 0 = no growth, -100 = all killed)
Details: 10 µM unless noted
Procedure: Cells are grown in 96 well plates and exposed to the test compound for 48 hours. Compounds are tested at a single concentration, which is 10^-5 M for most compounds. The reported endpoint is percent growth (GI% or GIPRCNT), where numbers from 0 - 100% represent growth inhibition, and numbers from -100% - 0 represent cell death. For example, a value of 40 represents 60% growth inhibition. A value of 0 means no net growth occurred over the course of the experiment. […]
About 83,000 compounds went through this panel and 20% of them were active in at least one assay; those are over-represented in the sample as a whole.
Listed below: growth values for each entry.

COMPOUND	growth, %
COc1ccc(C(O)c2cc3c(N)c(C(=O)Nc4cccc(OC)c4)sc3nc2C)cc1 (stereo unspecified)	6.75
O=C(OC(OC(=O)c1cc(Cl)cc(Cl)c1)c1cccc2ccccc12)c1ccccc1 (stereo unspecified)	103
BrC(Br)(Br)c1cnc2ccccc2n1	4.36
COc1cc(Nc2cc(O)c3c(=O)cc(-c4ccccc4)oc3c2)cc(OC)c1	20
O=C(N/N=C/c1cccnc1)c1ccccc1Nc1cccc(C(F)(F)F)c1	91.1
O=C1C(=O)c2c(nc3ncccn23)-c2ccccc21	-96.8

----------
Tested on: UACC-257 melanoma
Assay: NCI-60 one-dose screen, 48 h
Conditions: 10 µM unless noted
The panel holds about 83,000 compounds, 20% with a hit somewhere; the sample as a whole holds those more often. The source made the active and inactive calls. Rule for the calls: active = growth percent below 10; inactive = the rest.
Classes used: active, inactive

MOLECULE	ANSWER_LABEL
O=[N+]([O-])c1cccc(-c2nc(-c3ccc(Cl)cc3Cl)cn2-c2ccccc2)c1	active
CC(=O)CCSc1ccc(OC(C)=O)cc1	inactive
CCSc1ccc2c(c1)N(CCCN1CCN(C)CC1)c1ccccc1S2	active
C=C1C(=O)O[C@H]2[C@H]1CC/C(COC(=O)NCCc1c[nH]c3ccc(Cl)cc13)=C\CC[C@@]1(C)O[C@@H]21	active
O=C(Nc1cccc(C2=NCCN2)c1)c1ccc(OCCCOc2ccc(C(=O)Nc3cccc(C4=NCCN4)c3)cc2)cc1	active
COc1ccc2c(c1)OC1=C(C(=O)OC1)C2c1cc(OC)c(OC)c(OC)c1 (centres undefined)	inactive
CCCCCCCCCCCCCCCC(=O)OC[C@@]1(O)C[C@@]23CC[C@@H]4C(C)(C)[C@H](O)CC[C@@]4(C)[C@@H]2CC[C@H]1C3	inactive
CCNC(=O)c1[nH]cc(-c2ccc(OC)cc2)c1-c1cc(OC)c(OC)c(OC)c1	inactive
COC(=O)Nc1nc2ccc(C(=O)c3cccc(I)c3)cc2[nH]1	inactive

----------
System: A549/ATCC NSCLC
Assay: NCI-60 one-dose screen, 48 h
Conditions: 10 µM unless noted
The panel holds about 83,000 compounds, 20% with a hit somewhere; the sample as a whole holds those more often. Active and inactive are the calls of the source. Rule for the calls: active = growth percent below 10; inactive = the rest.
Classes used: active, inactive

MOLECULE	ANSWER_LABEL
COc1ccc(-c2c[nH]c(C(=O)O)c2-c2cc(OC)c3c(c2OC)OCO3)cc1	inactive
O=C(CNCCO)Nc1ccc2ncnc(Nc3ccc(OCc4cccc(F)c4)c(Cl)c3)c2c1	inactive
CC1=CC2(C)/C=C(C)/C=C\CC(O)/C=C3/C=CC(=C4C(=O)OC2(CC1C)C4=O)OC3 (stereo not given)	active
COc1cc2nc(-c3ccc(C(F)(F)F)cc3)cc(OCCN3CCC(O)CC3)c2cc1OC	inactive
COc1ccc(C(=O)c2cc3c(N)c(C(=O)Nc4ccc(Cl)cc4)sc3nc2C)cc1	inactive

----------
System: SF-295 CNS
Assay: NCI-60 one-dose screen, 48 h
Conditions: 10 µM unless noted
Description: Cells are grown in 96 well plates and exposed to the test compound for 48 hours. Compounds are tested at a single concentration, which is 10^-5 M for most compounds. The reported endpoint is percent growth (GI% or GIPRCNT), where numbers from 0 - 100% represent growth inhibition, and numbers from -100% - 0 represent cell death. For example, a value of 40 represents 60% growth inhibition. A value of 0 means no net growth occurred over the course of the experiment. […]
About 83,000 compounds went through this panel and 20% of them were active in at least one assay; those are over-represented in the sample as a whole. Activity calls are given as the source filed them. The calls were made as follows: active = growth percent below 10; inactive = the rest.
Classes used: yes = active, no = inactive

MOLECULE	SYSTEM	ANSWER_LABEL
O=C1Nc2c(ccc(Cl)c2Cl)/C1=C/c1ccccn1	SF-295 CNS	no
O=C1c2cccnc2C(=O)c2nc3cc(N4CCN(C5CC5)CC4)ccc3nc21	SF-295 CNS	yes
O=C1Nc2c(ccc(Cl)c2Cl)/C1=C/c1ccc(O)cc1	SF-295 CNS	no
Cn1c(COC(=O)NCCc2ccccn2)nc2c(N3CCOCC3)nc(Cl)nc21	SF-295 CNS	no
NC(=O)c1ncn(C2OC(CO)C(O)C2O)n1 (stereo unspecified)	SF-295 CNS	no
Cc1ccc(Nc2cc(=S)nc(N)[nH]2)cc1C	SF-295 CNS	no
COc1cc(/C=C/C(=O)c2c(C)oc3nc[nH]c(=O)c23)ccc1O	SF-295 CNS	no
COc1cc(OC)cc(C2C3=C(COC3=O)Nc3cc(OC)ccc32)c1 (stereo unspecified)	SF-295 CNS	no
COc1ccc(NS(=O)(=O)c2ccc(C)cc2)c([N+](=O)[O-])c1	SF-295 CNS	no
COc1ccc(C(=O)/C=C/c2ccc(OCc3ccccc3)c(OC)c2)cc1OC	SF-295 CNS	no
COc1nccnn1	SF-295 CNS	no
